Collected pIC50 Category (Activity) values appear next to each entry.
- Assayed target: Recombinant human FAP (R&D systems, #3715-SE) (human, UniProt Q12884 26-760)
- Sequence (Q12884 26-760 limits assumed): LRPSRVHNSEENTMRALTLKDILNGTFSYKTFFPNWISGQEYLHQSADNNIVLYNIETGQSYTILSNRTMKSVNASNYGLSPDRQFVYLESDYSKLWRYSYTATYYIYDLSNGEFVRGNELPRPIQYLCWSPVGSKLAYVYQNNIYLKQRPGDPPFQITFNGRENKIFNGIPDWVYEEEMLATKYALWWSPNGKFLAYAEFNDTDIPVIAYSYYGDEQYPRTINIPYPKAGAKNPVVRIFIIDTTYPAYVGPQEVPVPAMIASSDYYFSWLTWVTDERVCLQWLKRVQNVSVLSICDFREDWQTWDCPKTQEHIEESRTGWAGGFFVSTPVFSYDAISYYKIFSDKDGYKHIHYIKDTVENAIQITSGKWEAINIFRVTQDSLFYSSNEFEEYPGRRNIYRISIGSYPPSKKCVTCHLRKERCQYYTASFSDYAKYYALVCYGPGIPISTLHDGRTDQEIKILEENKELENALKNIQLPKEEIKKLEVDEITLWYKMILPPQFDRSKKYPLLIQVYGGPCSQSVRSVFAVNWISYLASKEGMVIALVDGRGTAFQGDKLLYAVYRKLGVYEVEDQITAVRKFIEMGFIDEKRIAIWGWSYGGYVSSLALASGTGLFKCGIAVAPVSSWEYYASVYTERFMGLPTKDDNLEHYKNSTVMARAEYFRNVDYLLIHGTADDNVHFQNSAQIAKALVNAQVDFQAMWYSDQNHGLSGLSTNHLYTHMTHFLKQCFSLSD
- Run description: cell-based or functional assay
Numbered stars: 1 amine (or outer) side, 2 acyl side, 3 side chain; on linkers, the order of the positions; unused ones are H or OH. Bridge positions count the residues as written; N and C are the ends. Square brackets hold non-standard residues; d marks the D form. Primed or numbered codes have the meaning given here. * marks the point of attachment. tMeBn(DOTA-PP) = 1,3,5-trimethylbenzylidene, two thioethers to Cys, third CH2 bound to one N of piperazine whose other N bears DOTA, O=C(O)CN1CCN(CC(=O)O)CCN(CC(=O)N2CCN(Cc3cc(C[*:1])cc(C[*:2])c3)CC2)CCN(CC(=O)O)CC1; TBMB(SCH2CH2NH-DOTA) = O=C(O)CN1CCN(CC(=O)O)CCN(CC(=O)NCCSCc2cc(C[*:1])cc(C[*:2])c2)CCN(CC(=O)O)CC1; Ttds(6) = 1,13-Diamino-4,7,10-trioxatridecan-succinamic acid, O=C(CCC(=O)[*:2])NCCCOCCOCCOCCCN[*:1]; Ttds = 1,13-diamino-4,7,10-trioxatridecan-succinamic acid, O=C(CCC(=O)[*:2])NCCCOCCOCCOCCCN[*:1]; 3MeBn = 3-Methylbenzylidene (m-xylylene thioether bridge from α,α′-dibromo-m-xylene); N4Ac = 6-Carboxy-1,4,8,11-tetraazaundecane, an N4-chelator, NCCNCC(CNCCN)C(=O)*; nBu‑CAyl = n-butylaminocarbonyl, CCCCNC(=O)*; Nle = CCCC[C@H](N)C(=O)O; Hexanoyl = CCCCCC(=O)*; Ahx = NCCCCCC(=O)O; Sar = CNCC(=O)O

Binder	pIC50 Category (Activity)
{nBu‑CAyl}-C[Sar]PTQFC-OH (linker 1-7 via TBMB(SCH2CH2NH-DOTA); SMILES CCCCNC(=O)N[C@H]1CSCc2cc(CSCCNC(=O)CN3CCN(CC(=O)O)CCN(CC(=O)O)CCN(CC(=O)O)CC3)cc(c2)CSC[C@@H](C(=O)O)NC(=O)[C@H](Cc2ccccc2)NC(=O)[C@H](CCC(N)=O)NC(=O)[C@H]([C@@H](C)O)NC(=O)[C@@H]2CCCN2C(=O)CN(C)C1=O, also called 3BP-4607) [nBu-CAyl-[Cys(tMeBn(DOTA-AET))-Nmg-Pro-Thr-Gln-Phe-Cys]-OH]	> 8 pIC50
H-[Ahx][Ttds][Nle]CPPTQFCD-NH2 (linker 4-10 via tMeBn(DOTA-PP); SMILES CCCC[C@H](NC(=O)CCC(=O)NCCCOCCOCCOCCCNC(=O)CCCCCN)C(=O)N[C@H]1CSCc2cc(cc(CN3CCN(C(=O)CN4CCN(CC(=O)O)CCN(CC(=O)O)CCN(CC(=O)O)CC4)CC3)c2)CSC[C@@H](C(=O)N[C@@H](CC(=O)O)C(N)=O)NC(=O)[C@H](Cc2ccccc2)NC(=O)[C@H](CCC(N)=O)NC(=O)[C@H]([C@@H](C)O)NC(=O)[C@@H]2CCCN2C(=O)[C@@H]2CCCN2C1=O, also called 3BP-4004) [H-Ahx-Ttds-Nle-[Cys-(tMeBn(DOTA-PP))-Pro-Pro-Thr-Gln-Phe-Cys]-Asp-NH2]	> 8 pIC50
N4Ac-[Ttds(6)]E[Nle]CPPTEFC-OH (linker 4-10 via 3MeBn; not fully specified (residue 2); printed as N4Ac-Ttds-Glu(AGLU′)-Nle-[Cys-(3MeBn)-Pro-Pro-Thr-Glu-Phe-Cys]-OH) [N4Ac-Ttds-Glu(AGLU′)-Nle-[Cys-(3MeBn)-Pro-Pro-Thr-Glu-Phe-Cys]-OH]	≤ 6 pIC50

Now examine the next entry.
Record Hexanoyl-C[Sar]PTQFC-OH (linker 1-7 via tMeBn(InDOTA-AET); not fully specified (residue 1); printed as Hex--[C(tMeBn(InDOTA--AET))--Nmg-PTQFC]-OH; also: DOTA complexing indium, also called 3BP-3716) [Hex-[Cys(tMeBn(InDOTA-AET))-Nmg-Pro-Thr-Gln-Phe-Cys]-OH] . Reported pIC50 Category (Activity): > 8 pIC50
